# Tested on: Ramos
# PROCEDURE DETAILS: Antitumor activity against human Ramos cells
# Type: functional, cell-based
METRIC: IC50 (µM)
Kindly answer with a numeric value in µM, unit omitted.

SMI | SUBJECT OF TEST | METRIC | UNIT INFO | QUANTITATIVE READOUT
Cc1cccc(P(=O)(CNCc2ccccc2)c2cccc(C)c2)c1 | Ramos | IC50 | µM | 38

Here is the next item to consider.
I have this molecule here, `[2H]C([2H])(NCc1ccccc1)P(=O)(c1cccc(C)c1)c1cccc(C)c1` , and I need its recorded IC50.
4.2

###

# SUBJECT OF TEST: UniProtKB P04035
# Sequence (P04035 whole entry): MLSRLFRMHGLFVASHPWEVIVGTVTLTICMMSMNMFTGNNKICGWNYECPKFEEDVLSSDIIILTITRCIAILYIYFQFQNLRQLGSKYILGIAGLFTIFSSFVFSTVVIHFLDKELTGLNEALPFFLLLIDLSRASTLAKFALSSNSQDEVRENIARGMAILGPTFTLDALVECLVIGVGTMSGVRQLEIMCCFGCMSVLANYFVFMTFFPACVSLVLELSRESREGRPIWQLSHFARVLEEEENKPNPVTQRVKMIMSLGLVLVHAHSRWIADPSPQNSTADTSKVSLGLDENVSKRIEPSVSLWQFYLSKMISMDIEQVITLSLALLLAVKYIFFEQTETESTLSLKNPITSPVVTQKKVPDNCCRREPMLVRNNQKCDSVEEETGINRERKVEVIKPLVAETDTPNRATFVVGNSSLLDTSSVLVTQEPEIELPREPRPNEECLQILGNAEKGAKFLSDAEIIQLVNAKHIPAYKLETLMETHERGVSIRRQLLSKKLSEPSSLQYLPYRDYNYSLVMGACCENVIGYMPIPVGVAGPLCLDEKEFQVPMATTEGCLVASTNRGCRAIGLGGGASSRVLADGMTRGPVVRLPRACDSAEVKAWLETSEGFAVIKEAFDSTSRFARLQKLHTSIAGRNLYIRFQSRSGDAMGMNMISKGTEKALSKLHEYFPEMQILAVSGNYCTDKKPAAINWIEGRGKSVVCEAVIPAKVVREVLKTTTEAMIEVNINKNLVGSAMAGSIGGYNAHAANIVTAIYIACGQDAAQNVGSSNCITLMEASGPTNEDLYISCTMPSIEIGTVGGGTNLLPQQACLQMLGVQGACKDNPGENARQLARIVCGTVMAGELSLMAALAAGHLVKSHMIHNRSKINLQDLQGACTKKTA
Here, each record is paired with measured pIC50 data.
Note on pIC50: it is the negative log10 of concentration, concentration in mol/L.

MOLECULE | SUBJECT OF TEST | METRIC | QUANTITATIVE READOUT
CC(C)c1ccc(-c2ccc(F)cc2)n1CC[C@@H]1C[C@@H](O)CC(=O)O1 | UniProtKB P04035 | pIC50 | 6.64

Turning now to a further molecule:
Field request: pIC50 | item: CC(C)c1c(C(=O)Nc2ccccc2)c(-c2ccccc2)c(-c2ccc(F)cc2)n1CC[C@@H]1C[C@@H](O)CC(=O)O1 [ATORVASTATIN LACTONE]
8.15

Values were extracted from ChEMBL document CHEMBL5523724.
